Biological target: human recombinant serotonin (5-Hydroxytryptamine) 5-HT2A receptor (Homo sapiens)
Construct: expressed in transfected cells; host or cells: CHO-K1
Sequence (P28223 whole entry): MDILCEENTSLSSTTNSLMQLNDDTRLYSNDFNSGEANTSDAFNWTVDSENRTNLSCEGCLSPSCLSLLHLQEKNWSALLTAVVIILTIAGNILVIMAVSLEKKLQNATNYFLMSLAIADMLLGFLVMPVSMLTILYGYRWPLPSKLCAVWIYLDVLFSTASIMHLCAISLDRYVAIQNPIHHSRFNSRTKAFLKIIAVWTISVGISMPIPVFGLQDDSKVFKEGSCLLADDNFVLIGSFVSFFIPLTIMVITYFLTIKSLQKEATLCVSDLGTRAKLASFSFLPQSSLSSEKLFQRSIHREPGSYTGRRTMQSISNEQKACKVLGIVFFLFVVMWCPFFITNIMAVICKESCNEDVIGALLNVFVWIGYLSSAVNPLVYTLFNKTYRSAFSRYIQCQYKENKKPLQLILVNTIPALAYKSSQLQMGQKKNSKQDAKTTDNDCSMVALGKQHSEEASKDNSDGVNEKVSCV
Assay: Serotonin 5-HT2A radioligand binding ([3H]Ketanserin)
Details: compound at 1 μM; read-out: Serotonin (1 μM) 5-HT2A, percentage inhibition of ligand binding
EXPERIMENTAL_READOUT: inhibition at 1 µM (%)
Give just the number in %; leave the unit off.

Solved entries (count: 3):
>  <MOLECULE>
Cc1cc2c3c(c1)c1c(n3CC2c2ccc(F)cc2)CCN(C)C1 (stereo not shown) [Compound 2]

>  <UNIT_ABBREVIATION>
%

>  <inhibition at 1 µM>
87

$$$$
>  <MOLECULE>
Cc1cc2c3c(c1)c1c(n3CC(c3ccc(F)cc3)C2)CCN(C)C1 (stereo not shown) [Compound 3]

>  <UNIT_ABBREVIATION>
%

>  <inhibition at 1 µM>
94

$$$$
>  <MOLECULE>
Cc1cc2c3c(c1)c1c(n3CC(c3ccc(C)nc3)C2)CCN(C)C1 (stereo not shown) [Compound 1]

>  <UNIT_ABBREVIATION>
%

>  <inhibition at 1 µM>
20

$$$$

--- query ---
Specify inhibition at 1 µM for Cc1cc2c3c(c1)c1c(n3CCO2)CCN(C)C1 [Compound 4] and stop.
56

====

Target: human recombinant serotonin (5-Hydroxytryptamine) 5-HT2A receptor (Homo sapiens)
Construct: expressed in transfected cells; host or cells: CHO-K1
Experiment: Serotonin 5-HT2A radioligand binding ([3H]Ketanserin)
Conditions: compound at 0.1 μM; read-out: Serotonin (0.1 μM) 5-HT2A, percentage inhibition of ligand binding
Catalogue of compounds with associated inhibition at 0.1 µM
// unit must come after the numeric part

Recorded inhibition at 0.1 µM, per entry:
>  <COMPOUND>
O=C(CCCN1CCc2c(c3cccc4c3n2CCC4)C1)c1ccc(F)cc1

>  <TEST_SYSTEM>
human recombinant serotonin (5-Hydroxytryptamine) 5-HT2A receptor (Homo sapiens)

>  <inhibition at 0.1 µM>
99%

$$$$
>  <COMPOUND>
Cc1cc2c(-c3ccccc3)cn3c4c(c(c1)c23)CN(C)CC4

>  <TEST_SYSTEM>
human recombinant serotonin (5-Hydroxytryptamine) 5-HT2A receptor (Homo sapiens)

>  <inhibition at 0.1 µM>
50%

$$$$
>  <COMPOUND>
Cc1cc2c3c(c1)c1c(n3C[C@@](C)(c3ccncc3)O[C@H]2C)CCN(C)C1

>  <TEST_SYSTEM>
human recombinant serotonin (5-Hydroxytryptamine) 5-HT2A receptor (Homo sapiens)

>  <inhibition at 0.1 µM>
7%

$$$$
>  <COMPOUND>
Cc1cc2c3c(c1)c1c(n3CC(c3ccc(F)cc3)=C2)CCN(C)C1

>  <TEST_SYSTEM>
human recombinant serotonin (5-Hydroxytryptamine) 5-HT2A receptor (Homo sapiens)

>  <inhibition at 0.1 µM>
81%

$$$$

Give reported inhibition at 0.1 µM value for `CN1CCc2c(c3cccc4c3n2CC(=O)N4Cc2ccncc2)C1`
53%

Report inhibition at 0.1 µM for Cc1cc2c3c(c1)c1c(n3C(c3ccccc3)C2)CCN(C)C1 (stereo not drawn)
90%

Return the recorded inhibition at 0.1 µM value; entry: `CN1CCc2c(c3cccc4c3n2CCO4)C1`
11%

====

Target: human recombinant dopamine D2L receptor (Homo sapiens, UniProt P14416)
Construct: expressed in transfected cells; host or cells: CHO
Sequence (P14416 whole entry): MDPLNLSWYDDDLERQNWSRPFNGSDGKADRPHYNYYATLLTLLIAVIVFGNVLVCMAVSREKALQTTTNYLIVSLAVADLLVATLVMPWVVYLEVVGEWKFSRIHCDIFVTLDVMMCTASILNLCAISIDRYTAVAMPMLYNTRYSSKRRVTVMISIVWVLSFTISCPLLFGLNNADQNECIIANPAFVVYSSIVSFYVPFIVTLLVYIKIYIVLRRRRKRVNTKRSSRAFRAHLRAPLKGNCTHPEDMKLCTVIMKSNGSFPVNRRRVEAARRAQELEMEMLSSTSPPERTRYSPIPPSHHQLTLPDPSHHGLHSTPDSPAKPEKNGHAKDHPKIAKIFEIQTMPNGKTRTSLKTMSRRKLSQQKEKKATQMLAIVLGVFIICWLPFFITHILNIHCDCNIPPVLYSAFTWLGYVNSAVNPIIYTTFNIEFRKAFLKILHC
Assay: Dopamine D2L radioligand binding ([3H]Spiperone)
Details: compound at 1 μM; read-out: Dopamine (1 μM) D2L, percentage inhibition of ligand binding
Below, each of the compounds is paired with its reported inhibition at 1 µM value.
The reply should contain only the number, in %.

>  <COMPOUND>
Cc1cc2c3c(c1)c1c(n3C[C@@](C)(c3ccncc3)O[C@H]2C)CCN(C)C1 [Compound 162]

>  <MEASURED_RESULT>
11

$$$$
>  <COMPOUND>
Cc1cc2c3c(c1)c1c(n3CCO2)CCN(C)C1 [Compound 4]

>  <MEASURED_RESULT>
6

$$$$
>  <COMPOUND>
Cc1cc2c3c(c1)c1c(n3CC(C)(c3ccncc3)OC(C)C2)CCN(C)C1 (stereo not shown) [Compound 165]

>  <MEASURED_RESULT>
10

$$$$
>  <COMPOUND>
CN1CCc2c(c3cccc4c3n2CC(=O)N4)C1 [Compound 5]

>  <MEASURED_RESULT>
21

$$$$
>  <COMPOUND>
CN1CCc2c(c3cccc4c3n2CCS4)C1 [Compound 11]

>  <MEASURED_RESULT>
10

$$$$
>  <COMPOUND>
Cc1cc2c3c(c1)c1c(n3CC(c3ccc(F)cc3)=CC2)CCN(C)C1 [Compound 156]

>  <MEASURED_RESULT>
65

$$$$

Tell us which inhibition at 1 µM value is on record for Cc1cc2c3c(c1)c1c(n3CC(c3ccc(F)cc3)=C2)CCN(C)C1 [Compound 158]
99

Give the reported value of inhibition at 1 µM for this record: Cc1cc2c3c(c1)c1c(n3CC(c3ccc(C)nc3)C2)CCN(C)C1 (stereo not shown) [Compound 1]
-1

Look up inhibition at 1 µM of CN1CCc2c(c3cccc4c3n2C(c2ccccc2)C(=O)N4)C1 (stereo not shown) [Compound 6] and report it.
41

Return value of inhibition at 1 µM for input CN1CCc2c(c3cccc4c3n2CCO4)C1 [Compound 9] , no commentary.
10

====

Target: human recombinant serotonin (5-Hydroxytryptamine) 5-HT6 receptor (Homo sapiens, UniProt P50406)
Construct: expressed in transfected cells; host or cells: HeLa
Sequence (P50406 whole entry): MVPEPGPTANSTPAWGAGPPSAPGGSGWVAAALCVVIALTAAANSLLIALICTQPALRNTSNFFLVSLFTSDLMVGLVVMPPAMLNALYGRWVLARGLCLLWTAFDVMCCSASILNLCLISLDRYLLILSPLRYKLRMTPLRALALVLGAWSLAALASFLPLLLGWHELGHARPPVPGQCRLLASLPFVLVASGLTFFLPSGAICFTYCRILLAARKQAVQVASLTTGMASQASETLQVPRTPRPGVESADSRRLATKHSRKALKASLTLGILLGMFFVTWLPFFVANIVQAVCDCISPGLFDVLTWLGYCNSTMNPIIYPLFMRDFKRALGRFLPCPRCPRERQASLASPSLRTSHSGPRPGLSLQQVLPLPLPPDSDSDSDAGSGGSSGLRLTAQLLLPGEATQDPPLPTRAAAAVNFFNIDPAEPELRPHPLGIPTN
Experiment: Serotonin 5-HT6 radioligand binding ([3H]LSD)
Conditions: compound at 0.1 μM; read-out: Serotonin (0.1 μM) 5-HT6, percentage inhibition of ligand binding
Description: To evaluate in radioligand binding assays the activity of compounds of the invention, human recombinant serotonin (5-Hydroxytryptamine) 5-HT6 receptor expressed in human HeLa cells (Monsma, F. Jr. et al, Mol. Pharmacol. 43:320, 1993) in a modified Tris-HCl buffer (50 mM Tris-HCl, pH 7.4, 150 mM NaCl, 2 mM Ascorbic Acid, 0.001% BSA) was used. […] Receptor proteins were filtered and washed, the filters were then counted to determine [3H]LSD specifically bound. […]
EXPERIMENTAL_READOUT: inhibition at 0.1 µM (%)
Entry rule: numbers only, all in %.

Worked cases, answers included:
>  <COMPOUND>
Cc1cc2c3c(c1)c1c(n3CC2)CCN(CCCC(=O)c2ccc(F)cc2)C1

>  <UNIT_ABBREVIATION>
%

>  <MEASURED_RESULT>
31

$$$$
>  <COMPOUND>
Cc1cc2c(-c3ccccc3)cn3c4c(c(c1)c23)CN(C)CC4

>  <UNIT_ABBREVIATION>
%

>  <MEASURED_RESULT>
47

$$$$
>  <COMPOUND>
Cc1cc2c3c(c1)c1c(n3CC(C)(c3ccncc3)OC(C)C2)CCN(C)C1 (stereo not shown)

>  <UNIT_ABBREVIATION>
%

>  <MEASURED_RESULT>
10

$$$$
>  <COMPOUND>
CN1CCc2c(c3cccc4c3n2CC(=O)N4Cc2ccncc2)C1

>  <UNIT_ABBREVIATION>
%

>  <MEASURED_RESULT>
4

$$$$
>  <COMPOUND>
Cc1cc2c3c(c1)c1c(n3CC(c3ccc(F)cc3)=C2)CCN(C)C1

>  <UNIT_ABBREVIATION>
%

>  <MEASURED_RESULT>
82

$$$$
>  <COMPOUND>
CN1CCc2c(c3cccc4c3n2C(c2ccccc2)C(=O)N4)C1 (stereo not shown)

>  <UNIT_ABBREVIATION>
%

>  <MEASURED_RESULT>
-6

$$$$

Give recorded inhibition at 0.1 µM. `CN1CCc2c(c3cccc4c3n2CCS4)C1`
18

Give a short answer stating reported inhibition at 0.1 µM for `CN1CCc2c(c3cccc4c3n2CCC4)C1` .
9

Provide measured inhibition at 0.1 µM value, entry: CN1CCc2c(c3cccc4c3n2CC(c2ccncc2)S4)C1 (stereo not shown)
23

Provide measured inhibition at 0.1 µM value, entry: `Cc1cc2c3c(c1)c1c(n3CC(c3ccc(F)cc3)=CC2)CCN(C)C1`
62

Look up and report measured inhibition at 0.1 µM for this entry: Cc1cc2c3c(c1)c1c(n3CC(C)(c3ccc(C)nc3)OC(C)C2)CCN(C)C1 (stereo not shown)
-10

Using known records, supply inhibition at 0.1 µM for Cc1cc2c3c(c1)c1c(n3C(c3ccccc3)C2)CCN(C)C1 (stereo not shown)
59

Fill in inhibition at 0.1 µM for record `Cc1cc2c3c(c1)c1c(n3C[C@@](C)(c3ccncc3)O[C@H]2C)CCN(C)C1`
-8

Note down inhibition at 0.1 µM recorded for CN1CCc2c(c3cccc4c3n2CC(c2ccc(F)cc2)C4)C1 (stereo not shown)
57

Look up and state reported inhibition at 0.1 µM for `CN1CCc2c(c3cccc4c3n2CC(=O)N4)C1`
4

Using the record for Cc1cc2c3c(c1)c1c(n3CC(c3ccccc3)O2)CCN(C)C1 (stereo not shown) , state its measured inhibition at 0.1 µM.
21
